System: SUM149PT spheroids with HUVEC/MSC, viability
Assay: Anticancer human tumor SUM149PT cell line growth inhibition [GQUAD];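 also: spheroids exposed to drugs for seven days before readout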
Conditions: curve of first compound; second compound 1 µM
pIC50: −log10 of the molar value.
Assignment: determine reported pIC50 for the given molecules.

* CC1COCCN1c1cc(-c2ccnn2C)c2ccnc(-c3ccn[nH]3)c2n1 (stereo not given) + Cc1[nH]c2ccc(F)cc2c1-c1nc2c3cccnc3c3ncccc3c2[nH]1 | 6.92
* C=CC(=O)N1CCN(c2nc(=O)n(-c3c(C)ccnc3C(C)C)c3nc(-c4c(O)cccc4F)c(F)cc23)C(C)C1 (stereo not given) + CN(C)c1ccc(Nc2c3ccc(NC(=O)CCN4CCCC4)cc3nc3cc(NC(=O)CCN4CCCC4)ccc23)cc1 | < 5.00
* C=CCn1c(=O)c2cnc(Nc3ccc(N4CCN(C)CC4)cc3)nc2n1-c1cccc(C(C)(C)O)n1 + Cc1cnc(CNC(=O)c2c(=O)c3ccc(N4CCCN(C)CC4)nc3n3c2sc2ccccc23)cn1 | > 7.50
* CC(=O)O[C@H]1C(=O)[C@@]2(C)[C@H]([C@H](OC(=O)c3ccccc3)[C@]3(O)C[C@H](OC(=O)[C@H](O)[C@@H](NC(=O)c4ccccc4)c4ccccc4)C(C)=C1C3(C)C)[C@]1(OC(C)=O)CO[C@@H]1C[C@@H]2O + CN(C)c1ccc(Nc2c3ccc(NC(=O)CCN4CCCC4)cc3nc3cc(NC(=O)CCN4CCCC4)ccc23)cc1 | > 7.50
* Cc1cccc(N(C)C(=O)C2C(O)CCN2c2nc(C)cc(C(F)(F)F)c2C#N)c1 (stereo not given) + Cc1[nH]c2ccc(F)cc2c1-c1nc2c3cccnc3c3ncccc3c2[nH]1 | < 5.00
* COc1ncnc(C2CC2)c1-c1ncc2cnn(Cc3ccc(-c4nc(C(F)(F)F)cn4C(C)C)cc3)c2n1 + CN(C)c1ccc(Nc2c3ccc(NC(=O)CCN4CCCC4)cc3nc3cc(NC(=O)CCN4CCCC4)ccc23)cc1 | < 5.00
* COc1ncnc(C2CC2)c1-c1ncc2cnn(Cc3ccc(-c4nc(C(F)(F)F)cn4C(C)C)cc3)c2n1 + Cc1[nH]c2ccc(F)cc2c1-c1nc2c3cccnc3c3ncccc3c2[nH]1 | < 5.00
* O=c1[nH]cc(F)c(=O)[nH]1 + Cc1cnc(CNC(=O)c2c(=O)c3ccc(N4CCCN(C)CC4)nc3n3c2sc2ccccc23)cn1 | > 7.50

Could I get pIC50 for every one of these entries?
1. CC1COCCN1c1cc(C2(O)CC3CCC(C2)O3)c2cnn(-c3ccn[nH]3)c2n1 (stereo not given) + Cc1cnc(CNC(=O)c2c(=O)c3ccc(N4CCCN(C)CC4)nc3n3c2sc2ccccc23)cn1
2. Cn1ncnc1[C@H]1c2n[nH]c(=O)c3cc(F)cc(c23)N[C@@H]1c1ccc(F)cc1 + CN(C)c1ccc(Nc2c3ccc(NC(=O)CCN4CCCC4)cc3nc3cc(NC(=O)CCN4CCCC4)ccc23)cc1
3. CCCS(=O)(=O)Nc1ccc(F)c(C(=O)c2c[nH]c3ncc(-c4ccc(Cl)cc4)cc23)c1F + CN(C)c1ccc(Nc2c3ccc(NC(=O)CCN4CCCC4)cc3nc3cc(NC(=O)CCN4CCCC4)ccc23)cc1
4. O=C(c1cc(Cc2n[nH]c(=O)c3ccccc23)ccc1F)N1CCN(C(=O)C2CC2)CC1 + Cc1cnc(CNC(=O)c2c(=O)c3ccc(N4CCCN(C)CC4)nc3n3c2sc2ccccc23)cn1

1. > 7.50
2. < 6.50
3. 5.38
4. > 7.50

Could I get pIC50 for every one of these entries?
1. CC1COCCN1c1cc(-c2ccnn2C)c2ccnc(-c3ccn[nH]3)c2n1 (stereo not given) + Cc1cnc(CNC(=O)c2c(=O)c3ccc(N4CCCN(C)CC4)nc3n3c2sc2ccccc23)cn1
2. CCc1c2c(nc3ccc(O)cc13)-c1cc3c(c(=O)n1C2)COC(=O)[C@]3(O)CC + CN(C)c1ccc(Nc2c3ccc(NC(=O)CCN4CCCC4)cc3nc3cc(NC(=O)CCN4CCCC4)ccc23)cc1
3. CC1COCCN1c1cc(C2(S(C)(=N)=O)CC2)nc(-c2ccnc3[nH]ccc23)n1 (stereo not given) + Cc1[nH]c2ccc(F)cc2c1-c1nc2c3cccnc3c3ncccc3c2[nH]1

1. > 7.50
2. 8.17
3. 5.58

Could I get pIC50 for every one of these entries?
1. CC(C)(O)C1CCC(Nc2ccc3ncc(-c4cccc(C(F)(F)F)c4)n3n2)CC1 (stereo not given) + Cc1[nH]c2ccc(F)cc2c1-c1nc2c3cccnc3c3ncccc3c2[nH]1
2. CC1COCCN1c1cc(C2(S(C)(=N)=O)CC2)nc(-c2ccnc3[nH]ccc23)n1 (stereo not given) + Cc1cnc(CNC(=O)c2c(=O)c3ccc(N4CCCN(C)CC4)nc3n3c2sc2ccccc23)cn1

5.10
> 7.50

Could I get pIC50 for every one of these entries?
1. COc1cccc2c1C(=O)c1c(O)c3c(c(O)c1C2=O)CC(O)(C(=O)CO)CC3OC1CC(N)C(O)C(C)O1 (stereo not given) + Cc1[nH]c2ccc(F)cc2c1-c1nc2c3cccnc3c3ncccc3c2[nH]1
2. CC(=O)O[C@H]1C(=O)[C@@]2(C)[C@H]([C@H](OC(=O)c3ccccc3)[C@]3(O)C[C@H](OC(=O)[C@H](O)[C@@H](NC(=O)c4ccccc4)c4ccccc4)C(C)=C1C3(C)C)[C@]1(OC(C)=O)CO[C@@H]1C[C@@H]2O + Cc1cnc(CNC(=O)c2c(=O)c3ccc(N4CCCN(C)CC4)nc3n3c2sc2ccccc23)cn1
3. O=C(NO)c1cnc(N2CCN(S(=O)(=O)c3ccc4ccccc4c3)CC2)nc1 + Cc1cnc(CNC(=O)c2c(=O)c3ccc(N4CCCN(C)CC4)nc3n3c2sc2ccccc23)cn1

[6.70, "> 7.50", "> 7.50"]
